Target: T1, human ENTPD2 expressed on cells (human, UniProt Q9Y5L3 1-495)
T1 sequence: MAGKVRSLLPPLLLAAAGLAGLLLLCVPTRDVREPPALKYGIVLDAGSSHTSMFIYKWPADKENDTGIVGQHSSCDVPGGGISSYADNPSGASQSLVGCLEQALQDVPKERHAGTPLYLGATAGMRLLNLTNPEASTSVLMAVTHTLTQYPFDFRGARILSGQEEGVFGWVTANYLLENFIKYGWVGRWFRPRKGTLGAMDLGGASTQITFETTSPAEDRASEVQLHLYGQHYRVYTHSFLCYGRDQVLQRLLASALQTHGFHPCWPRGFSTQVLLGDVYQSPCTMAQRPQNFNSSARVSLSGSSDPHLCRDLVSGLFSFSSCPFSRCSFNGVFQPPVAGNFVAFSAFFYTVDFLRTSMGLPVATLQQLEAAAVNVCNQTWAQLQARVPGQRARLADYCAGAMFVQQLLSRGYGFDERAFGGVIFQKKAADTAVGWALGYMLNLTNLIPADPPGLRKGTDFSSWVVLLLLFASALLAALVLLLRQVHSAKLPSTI
Assay: cell-based or functional assay
Reported Metric: % inhibition, Human ENTPD2 NIH/3T3 Assay (%)
Entry rule: numbers only, all in %.

Query: Which % inhibition, Human ENTPD2 NIH/3T3 Assay is reported for this binder? ANTI-HUMAN ENTPD2 MAB6 (antibody, human IgG1, kappa, V domains shown, humanized and optimized from mAb16; human IgG1, kappa; also called Anti-ENTPD2 mAb6) VH: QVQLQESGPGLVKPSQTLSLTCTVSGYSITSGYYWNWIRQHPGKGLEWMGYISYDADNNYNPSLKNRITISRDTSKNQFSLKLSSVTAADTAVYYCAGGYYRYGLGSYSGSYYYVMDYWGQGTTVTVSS VL: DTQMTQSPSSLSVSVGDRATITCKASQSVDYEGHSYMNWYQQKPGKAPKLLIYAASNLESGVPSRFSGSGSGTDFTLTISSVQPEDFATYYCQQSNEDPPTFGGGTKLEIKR
Reply: 95

Measured values drawn from patent US20220348651A1 for this set.
